Give IC90 for every item shown.
Target: APOL1 G1 (Homo sapiens, UniProt O14791, I384M/S342G)
Sequence (O14791 28-398 S342G/I384M): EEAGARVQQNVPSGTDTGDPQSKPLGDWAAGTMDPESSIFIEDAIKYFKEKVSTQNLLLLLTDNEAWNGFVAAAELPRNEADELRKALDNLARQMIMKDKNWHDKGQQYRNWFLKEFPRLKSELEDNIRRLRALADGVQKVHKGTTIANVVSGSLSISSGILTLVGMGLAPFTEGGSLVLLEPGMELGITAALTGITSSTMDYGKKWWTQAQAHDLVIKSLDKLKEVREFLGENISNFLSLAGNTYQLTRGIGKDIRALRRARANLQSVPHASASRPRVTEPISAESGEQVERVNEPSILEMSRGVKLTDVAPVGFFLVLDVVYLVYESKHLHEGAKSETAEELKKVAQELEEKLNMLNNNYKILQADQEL
Experiment: MultiTox-Fluor Multiplex Cytotoxicity Assay, tet-inducible APOL1 G1 T-REx-HEK293 cells
Type: cell-based
Design: expressed in transfected cells; host or cells: T-REx HEK293, clone G1 DC3.25 (pAAVS1-Puro-APOL1 G1)
Settings: HEK293, Multi-Tox Assay; APOL1 variant (G0/G1/G2) of the HEK293 cells not given; read-out: Multi-Tox Assay IC90

Example results:
>>> print(df.to_string())
                                   molecule  value_reported
0  C[C@H]1C[C@@]2(C[C@@H](c3cn(Cc4cnccn4)nn3)N1)OCC(F)(F)c1cc(Cl)sc12    50 to 500 nM
1  CCC(O)Cn1cc([C@@H]2C[C@]3(C[C@H](C)N2)OCCc2cc(Cl)sc23)nn1 (mixture of isomers)    50 to 500 nM
2  CNC(=O)C(C)Cn1cc([C@@H]2C[C@]3(C[C@H](C)N2)OC[C@@H](O)c2cc(Cl)sc23)nn1 (some centres unmarked)        > 500 nM
3  C[C@H]1C[C@@]2(C[C@@H](c3cc4n(n3)CCCO4)N1)OCCc1cc(Cl)sc12 (racemic)    50 to 500 nM
4  Cc1nc(Cn2cc([C@@H]3C[C@]4(C[C@H](C)N3)OC[C@@H](O)c3cc(Cl)sc34)nn2)oc1C    50 to 500 nM

Please supply IC90 for each of the following items, keeping them in order.
1. Cc1cc([C@@H]2C[C@]3(C[C@H](C)N2)OCCc2cc(Cl)sc23)nc(N(C)C)n1 (racemic)
2. CC(=O)Nc1ccc(C2CC3(CC(C)N2)OCCc2cc(Cl)sc23)cn1 (centres unmarked)
3. Cc1ncc(Cn2cc([C@@H]3C[C@]4(C[C@H](C)N3)OC[C@@H](O)c3cc(Cl)sc34)nn2)cn1
4. C[C@H]1C[C@@]2(C[C@@H](c3ccnc(O)c3)N1)OCCc1cc(Cl)sc12 (racemic)
5. CCOc1ccc([C@@H]2C[C@]3(C[C@H](C)N2)OCCc2cc(Cl)sc23)cc1O (racemic)
6. C[C@H]1C[C@@]2(C[C@@H](C3CC3)N1)OCC(O)c1cc(Cl)sc12 (some centres unmarked)

1: 50 to 500 nM; 2: < 50 nM; 3: 50 to 500 nM; 4: < 50 nM; 5: < 50 nM; 6: < 50 nM
